# Tested on: OVCAR-5
# test: NCI tumour cell line growth inhibition, 48 h
Active and inactive are the calls of the source. No stated cut-off is given here; in the data, active = GI50 up to about 1.1 µM and inactive = higher.
Classes used: active, inactive

{"columns": ["molecule", "cat"],
 "data": [
  ["C/C(=N\\NC(=S)NCc1ccccc1)c1nc2cccnc2[nH]1", "inactive"],
  ["CCc1cccc(CC)c1NC(=O)C(=O)Cc1nc2ccccc2o1", "inactive"],
  ["N#CC(/C(=N\\NC(N)=S)C(=O)NC1C2CC3CC(C2)CC1C3)c1ccc(Cl)cc1 (stereo not given)", "inactive"],
  ["CCOC(=O)N1C=CC(=C2C(=C3C=CN(C(=O)OCC)C=C3)C(=C3C=CN(C(=O)OCC)C=C3)C2=C2C=CN(C(=O)OCC)C=C2)C=C1", "inactive"],
  ["CCN(CC)CCCNc1ccc([N+](=O)[O-])c2nc3ccccc3c(N)c12", "active"]
]}
